Molecular target: recombinant TFPI of the FXa restoring assay (human, mouse or rat; not specified for Tables 9 and 10)
Sequence (P10646 29-304): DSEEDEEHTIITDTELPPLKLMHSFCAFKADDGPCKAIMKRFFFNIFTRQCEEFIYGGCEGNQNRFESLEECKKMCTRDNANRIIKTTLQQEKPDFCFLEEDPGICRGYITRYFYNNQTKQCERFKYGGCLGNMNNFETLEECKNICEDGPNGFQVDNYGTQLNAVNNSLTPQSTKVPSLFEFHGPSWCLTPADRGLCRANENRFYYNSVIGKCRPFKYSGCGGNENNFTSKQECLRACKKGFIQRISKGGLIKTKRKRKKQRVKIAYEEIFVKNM
Test: cell-based or functional assay
reported-property: Improvement vs parental 2A8, FXa restoring assay (fold)
Respond numerically; units are fold and should not be typed.

>  <binder>
2A8-143 (HC S35D+S55R+K99L/LC Y48F+N51V+D91L+V96W) (Fab, V domains shown) VH: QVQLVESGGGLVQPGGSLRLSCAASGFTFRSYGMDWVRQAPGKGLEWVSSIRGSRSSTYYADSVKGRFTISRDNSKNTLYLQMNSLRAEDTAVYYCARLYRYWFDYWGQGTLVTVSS VL: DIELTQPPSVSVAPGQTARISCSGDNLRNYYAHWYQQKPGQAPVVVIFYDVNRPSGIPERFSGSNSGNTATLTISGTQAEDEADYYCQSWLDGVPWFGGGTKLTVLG

>  <value>
15.8

$$$$
>  <binder>
2A8-127 (HC S35D+K99L/LC Y48F+N51V+G56D+V96W) (Fab, V domains shown) VH: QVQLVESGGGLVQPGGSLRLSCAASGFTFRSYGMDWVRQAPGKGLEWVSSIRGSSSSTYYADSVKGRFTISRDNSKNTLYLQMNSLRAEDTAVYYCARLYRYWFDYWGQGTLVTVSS VL: DIELTQPPSVSVAPGQTARISCSGDNLRNYYAHWYQQKPGQAPVVVIFYDVNRPSDIPERFSGSNSGNTATLTISGTQAEDEADYYCQSWDDGVPWFGGGTKLTVLG

>  <value>
18.2

$$$$

Proceed to the following item.
2A8 HC_K99L (Fab, V domains shown, also called 2A8-9) VH: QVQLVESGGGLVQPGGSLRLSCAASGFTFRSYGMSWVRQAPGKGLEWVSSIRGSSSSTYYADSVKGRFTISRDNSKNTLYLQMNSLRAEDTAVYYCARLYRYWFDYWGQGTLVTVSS VL: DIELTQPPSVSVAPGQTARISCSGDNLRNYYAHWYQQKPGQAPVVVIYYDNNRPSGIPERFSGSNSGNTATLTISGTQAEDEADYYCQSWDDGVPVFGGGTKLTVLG has a reported Improvement vs parental 2A8, FXa restoring assay of 7.9
